Test system: hPIV-3 strain C243
measurement description: In situ ELISA virus growth inhibition in LLC-MK2 cells
Assay type: cell-based
details: Human respirovirus 3, LLC-MK2; hPIV3 C243; Table 2
measured attribute: IC50 (µM)
Answers are plain numbers, in µM.

Known IC50 results, listed for orientation:
COc1c(F)c(F)cc(C(=O)Nc2ccccc2-c2cn([C@H]3C=C(C(=O)O)O[C@@H]([C@H](O)[C@H](O)CO)[C@@H]3NC(C)=O)nn2)c1F 177
CC(=O)N[C@H]1[C@H]([C@H](O)[C@H](O)CO)OC(C(=O)O)=C[C@@H]1n1cc(-c2ccccc2NC(=O)CNS(=O)(=O)c2ccc([N+](=O)[O-])cc2)nn1 63.9
CC(=O)N[C@H]1[C@H]([C@H](O)[C@H](O)CO)OC(C(=O)O)=C[C@@H]1n1cc(-c2ccccc2NC(=O)CCNC(=O)C2CC2)nn1 104

For each of the molecules below, state IC50.
1. CC(=O)N[C@H]1[C@H]([C@H](O)[C@H](O)CO)OC(C(=O)O)=C[C@@H]1n1cc(-c2ccccc2NC(=O)c2cccc(OC(F)(F)F)c2)nn1
2. CC(=O)Nc1ccccc1-c1cn([C@H]2C=C(C(=O)O)O[C@@H]([C@H](O)[C@H](O)CO)[C@@H]2NC(C)=O)nn1

// result
1. 217
2. 126

// query Recorded IC50 for CC(=O)N[C@H]1[C@H]([C@H](O)[C@H](O)CO)OC(C(=O)O)=C[C@@H]1n1cc(-c2ccccc2NC(=O)CNC(=O)c2ccc(-c3ccccc3)cc2)nn1 , please?
// result 23.7

Origin of the recorded values: patent US20220274965A1
